method.summary: Biodistribution in AR42J tumor-bearing nude mice
Type: in vivo
condition.details: female, CD-1 nude, mouse, intestines, iv, 1 nmol/mouse, total radioactivity, 24 h p.i., i.v. 5 MBq, read-out: Intestines
measured.quantity: tissue uptake at 24 h

Prompt: // lookup tissue uptake at 24 h for C[C@@H](O)[C@@H]1NC(=O)[C@H](CCCCN)NC(=O)[C@@H](Cc2c[nH]c3ccccc23)NC(=O)[C@H](Cc2ccc(O)cc2)NC(=O)[C@@H](NC(=O)[C@@H](Cc2ccccc2)NC(=O)CN2CCN(CC(=O)O)CCN(CC(=O)O)CCN(CC(=O)O)CC2)CSSC[C@@H](C(=O)N[C@H](CO)[C@@H](C)O)NC1=O [[^161Tb]Tb-DOTATOC, metal not drawn]
Response: ≤ 0.1 %ID/g

---

method.summary: Biodistribution in AR42J tumor-bearing nude mice
Assay type: in vivo
condition.details: female, CD-1 nude, mouse, spleen, iv, 1 nmol/mouse, total radioactivity, 2 h p.i., i.v. 5 MBq, read-out: Spleen
measured.quantity: tissue uptake at 2 h (%ID/g)
Supply the numeric figure in %ID/g, leaving out any unit text.

Prompt: // lookup tissue uptake at 2 h for C[C@@H](O)[C@@H]1NC(=O)[C@H](CCCCN)NC(=O)[C@@H](Cc2c[nH]c3ccccc23)NC(=O)[C@H](Cc2ccc(O)cc2)NC(=O)[C@@H](NC(=O)[C@@H](Cc2ccccc2)NC(=O)CN2CCN(CC(=O)O)CCN(CC(=O)O)CCN(CC(=O)O)CC2)CSSC[C@@H](C(=O)N[C@H](CO)[C@@H](C)O)NC1=O [[^161Tb]Tb-DOTATOC, metal not drawn]
Response: 0.11

---

method.summary: Biodistribution in AR42J tumor-bearing nude mice
Format: in vivo
condition.details: female, CD-1 nude, mouse, intestines, iv, 1 nmol/mouse, total radioactivity, 2 h p.i., i.v. 5 MBq, read-out: Intestines
measured.quantity: tissue uptake at 2 h

Prompt: // lookup tissue uptake at 2 h for C[C@@H](O)[C@@H]1NC(=O)[C@H](CCCCN)NC(=O)[C@@H](Cc2c[nH]c3ccccc23)NC(=O)[C@H](Cc2ccc(O)cc2)NC(=O)[C@@H](NC(=O)[C@@H](Cc2ccccc2)NC(=O)CN2CCN(CC(=O)O)CCN(CC(=O)O)CCN(CC(=O)O)CC2)CSSC[C@@H](C(=O)N[C@H](CO)[C@@H](C)O)NC1=O [[^161Tb]Tb-DOTATOC, metal not drawn]
Response: 0.21 %ID/g

---

method.summary: Biodistribution in AR42J tumor-bearing nude mice
Format: in vivo
condition.details: female, CD-1 nude, mouse, liver, iv, 1 nmol/mouse, total radioactivity, 24 h p.i., i.v. 5 MBq, read-out: Liver
measured.quantity: tissue uptake at 24 h

Prompt: // lookup tissue uptake at 24 h for C[C@@H](O)[C@@H]1NC(=O)[C@H](CCCCN)NC(=O)[C@@H](Cc2c[nH]c3ccccc23)NC(=O)[C@H](Cc2ccc(O)cc2)NC(=O)[C@@H](NC(=O)[C@@H](Cc2ccccc2)NC(=O)CN2CCN(CC(=O)O)CCN(CC(=O)O)CCN(CC(=O)O)CC2)CSSC[C@@H](C(=O)N[C@H](CO)[C@@H](C)O)NC1=O [[^161Tb]Tb-DOTATOC, metal not drawn]
Response: ≤ 0.1 %ID/g

---

method.summary: Biodistribution in AR42J tumor-bearing nude mice
Type: in vivo
condition.details: female, CD-1 nude, mouse, kidneys, iv, 1 nmol/mouse, total radioactivity, 2 h p.i., i.v. 5 MBq, read-out: Kidneys
measured.quantity: tissue uptake at 2 h (%ID/g)
Supply the numeric figure in %ID/g, leaving out any unit text.

Prompt: // lookup tissue uptake at 2 h for C[C@@H](O)[C@@H]1NC(=O)[C@H](CCCCN)NC(=O)[C@@H](Cc2c[nH]c3ccccc23)NC(=O)[C@H](Cc2ccc(O)cc2)NC(=O)[C@@H](NC(=O)[C@@H](Cc2ccccc2)NC(=O)CN2CCN(CC(=O)O)CCN(CC(=O)O)CCN(CC(=O)O)CC2)CSSC[C@@H](C(=O)N[C@H](CO)[C@@H](C)O)NC1=O [[^161Tb]Tb-DOTATOC, metal not drawn]
Response: 9.9

The measurements presented in this section are drawn from paper PMC8070648.
